Values compiled from patent US10448639B2.

tested on: Botrytis cinerea; assay: Test B: tomato Botrytis, preventive spray on tomato seedlings, visual disease rating; settings: tomato Botrytis; 100 = 100% disease control, 0 = no control relative to controls
This listing pairs compounds with measured Test B rating (% disease control).
Express your answer in %, writing the number without its unit.

Previously resolved entries follow.
Cc1nn(C)c(Oc2c(F)cc(C#N)cc2F)c1-c1cccc(F)c1F: 8
Cc1nn(C)c(Oc2ccc(Br)c(C#N)c2)c1-c1c(F)cc(F)cc1F: 65

# ---- query compound ----
[ask] Give the measured Test B rating (% disease control) of "Cc1nn(C)c(Nc2ccc(C#N)cc2Cl)c1-c1ccc(F)cc1Cl" .
[reply] 99
